# credit: ChEMBL document CHEMBL1649281

test system: Pseudomonas aeruginosa; assay: Antibacterial activity against Pseudomonas aeruginosa isolated from wound infection of patient by Etest; format: functional

>  <Compound>
C[C@@H](O)[C@H]1C(=O)N2C(C(=O)O)=C(S[C@@H]3CN[C@H](C(=O)N(C)C)C3)[C@H](C)[C@H]12 [MEROPENEM]

>  <MIC, µg/mL>
6

$$$$
>  <Compound>
NC[C@H]1O[C@H](O[C@H]2[C@H](O)[C@@H](O[C@H]3O[C@H](CO)[C@@H](O)[C@H](N)[C@H]3O)[C@H](N)C[C@@H]2N)[C@H](N)C[C@@H]1O [TOBRAMYCIN]

>  <MIC, µg/mL>
48

$$$$
>  <Compound>
CCN1CCN(C(=O)N[C@@H](C(=O)N[C@@H]2C(=O)N3[C@@H]2SC(C)(C)[C@@H]3C(=O)O)c2ccccc2)C(=O)C1=O [PIPERACILLIN]

>  <MIC, µg/mL>
24

$$$$
